# SYSTEM UNDER TEST: T1, human GIP receptor (human, UniProt P48546 22-466)
# T1 sequence (looked up): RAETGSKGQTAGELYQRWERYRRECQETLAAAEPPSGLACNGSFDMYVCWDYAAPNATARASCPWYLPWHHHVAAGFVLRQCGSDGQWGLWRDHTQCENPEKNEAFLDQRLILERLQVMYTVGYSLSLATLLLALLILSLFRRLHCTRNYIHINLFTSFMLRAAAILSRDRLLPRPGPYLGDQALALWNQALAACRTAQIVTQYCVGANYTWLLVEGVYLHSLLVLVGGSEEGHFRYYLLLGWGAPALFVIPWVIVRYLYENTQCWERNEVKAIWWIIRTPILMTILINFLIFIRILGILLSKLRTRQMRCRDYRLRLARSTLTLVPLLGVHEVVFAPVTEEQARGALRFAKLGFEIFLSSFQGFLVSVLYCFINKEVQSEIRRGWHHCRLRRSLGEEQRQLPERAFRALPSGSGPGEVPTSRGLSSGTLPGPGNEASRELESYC
# PROTOCOL SUMMARY: cell-based or functional assay
*1 amine or outer side, *2 acyl side, *3 side chain or, on linkers, in order; H or OH if unused. Where no end group is shown, it is not given here. Side-chain parts run from the residue outwards. [ ]: non-standard residue; d: D form. The star is where a group is joined. C20 diacid = O=C(O)CCCCCCCCCCCCCCCCCCC(=O)*; C18 diacid = O=C(O)CCCCCCCCCCCCCCCCC(=O)*; γGlu = O=C(O)[C@H](CCC(=O)[*:2])N[*:1]; Trx = NC[C@H]1CC[C@H](C(=O)O)CC1; Nle = CCCC[C@H](N)C(=O)O; AEEA = NCCOCCOCC(=O)O; Aib = CC(C)(N)C(=O)O

- BINDER: "Y[Aib]EGTFISDYSIA[Nle]DKIRQEDFVK([γGlu-γGlu-γGlu-Trx-C20 diacid])WLLAQKG"
  ENDPOINT UNIT: "nM"
  EC50, hGIP-R CRE Luc, 0.2% HSA: 0.252
- BINDER: "Y[Aib]EGTFISDYSIA[Nle]DKIHQQDFVK([AEEA-AEEA-γGlu-C18 diacid])WLLAQKGKEEDWKHNITQ"
  ENDPOINT UNIT: "nM"
  EC50, hGIP-R CRE Luc, 0.2% HSA: 0.00545
- BINDER: "Y[Aib]EGTFISDYSIA[Nle]DKIRQQDFVK([AEEA-AEEA-γGlu-Trx-C20 diacid])WLLAQKGKEEDWKHNITQ"
  ENDPOINT UNIT: "nM"
  EC50, hGIP-R CRE Luc, 0.2% HSA: 0.014
